Experimental system: PKR2 (Homo sapiens)
Sequence (Q8NFJ6 whole entry): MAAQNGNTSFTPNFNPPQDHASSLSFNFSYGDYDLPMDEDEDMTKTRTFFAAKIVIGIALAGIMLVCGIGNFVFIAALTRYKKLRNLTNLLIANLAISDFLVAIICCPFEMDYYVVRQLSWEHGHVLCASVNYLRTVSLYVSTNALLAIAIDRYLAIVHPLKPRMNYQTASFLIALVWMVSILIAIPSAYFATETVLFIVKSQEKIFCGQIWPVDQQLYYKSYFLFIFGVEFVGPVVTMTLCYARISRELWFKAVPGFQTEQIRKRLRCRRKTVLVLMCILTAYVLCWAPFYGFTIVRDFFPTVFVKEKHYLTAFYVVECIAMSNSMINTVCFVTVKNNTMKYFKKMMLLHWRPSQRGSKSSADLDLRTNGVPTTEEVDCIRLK
Procedure text: Antagonism of PK2-induced calcium influx (luminescence) in CHO cells stably expressing PKR2
Measurement setup: luminescence (RLU), read-out: inhibition constant (Ki) for blocking activation of PKR2 by PK2
pKi: −log10 of the molar value.
Metric: pKi

Q: Sample CC(C)CN(Cc1ccc2c(c1)OCCCO2)C(=O)C1CN(Cc2ccccc2)CCO1 (racemic) — what was its pKi?
A: ~7.82
